Test system: PPARg:RXRa 90nM:30nM, anti-RXR (NR concentration 90 nM, RXRa partner concentration 30 nM)
assay-procedure: PBM binding z-score (relative to random genomic background probes); higher = stronger binding; sequences stand for … in GC…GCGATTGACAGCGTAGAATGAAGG
Please use 1 (yes) whenever PBM binding z-score is not below 1, and 0 (no) whenever it is.

Textbook exercise: given the entry `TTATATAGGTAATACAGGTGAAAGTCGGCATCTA` , state whether its PBM binding z-score is greater than or equal to 1.
1 (yes)

Textbook exercise: given the entry `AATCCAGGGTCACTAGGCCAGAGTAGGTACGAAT` , state whether its PBM binding z-score is greater than or equal to 1.
1 (yes)

Textbook exercise: given the entry `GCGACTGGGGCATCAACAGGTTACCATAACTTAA` , state whether its PBM binding z-score is greater than or equal to 1.
0 (no)

Textbook exercise: given the entry `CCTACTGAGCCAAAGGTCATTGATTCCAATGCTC` , state whether its PBM binding z-score is greater than or equal to 1.
1 (yes)

Textbook exercise: given the entry `AGAATGAGGTTATTAAGACCAGGGAATTGCGGTC` , state whether its PBM binding z-score is greater than or equal to 1.
1 (yes)

Textbook exercise: given the entry `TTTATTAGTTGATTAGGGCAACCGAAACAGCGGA` , state whether its PBM binding z-score is greater than or equal to 1.
1 (yes)

Textbook exercise: given the entry `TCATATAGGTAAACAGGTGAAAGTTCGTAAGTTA` , state whether its PBM binding z-score is greater than or equal to 1.
1 (yes)

Textbook exercise: given the entry `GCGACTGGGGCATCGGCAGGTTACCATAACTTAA` , state whether its PBM binding z-score is greater than or equal to 1.
0 (no)

Textbook exercise: given the entry `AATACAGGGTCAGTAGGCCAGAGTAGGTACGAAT` , state whether its PBM binding z-score is greater than or equal to 1.
1 (yes)

Textbook exercise: given the entry `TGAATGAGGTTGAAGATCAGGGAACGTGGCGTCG` , state whether its PBM binding z-score is greater than or equal to 1.
1 (yes)

Textbook exercise: given the entry `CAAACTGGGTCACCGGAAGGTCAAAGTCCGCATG` , state whether its PBM binding z-score is greater than or equal to 1.
1 (yes)

Textbook exercise: given the entry `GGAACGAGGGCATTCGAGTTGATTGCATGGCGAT` , state whether its PBM binding z-score is greater than or equal to 1.
0 (no)

Textbook exercise: given the entry `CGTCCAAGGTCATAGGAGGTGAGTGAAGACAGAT` , state whether its PBM binding z-score is greater than or equal to 1.
1 (yes)

Textbook exercise: given the entry `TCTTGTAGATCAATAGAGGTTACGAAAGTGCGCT` , state whether its PBM binding z-score is greater than or equal to 1.
1 (yes)

Textbook exercise: given the entry `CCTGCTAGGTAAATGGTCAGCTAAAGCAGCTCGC` , state whether its PBM binding z-score is greater than or equal to 1.
1 (yes)

Textbook exercise: given the entry `CTCGGAAGGTCGTGCTCAGGTGAGTATACCAAAC` , state whether its PBM binding z-score is greater than or equal to 1.
0 (no)

Textbook exercise: given the entry `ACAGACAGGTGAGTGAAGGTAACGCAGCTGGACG` , state whether its PBM binding z-score is greater than or equal to 1.
0 (no)

Textbook exercise: given the entry `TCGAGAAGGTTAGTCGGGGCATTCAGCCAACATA` , state whether its PBM binding z-score is greater than or equal to 1.
1 (yes)

Textbook exercise: given the entry `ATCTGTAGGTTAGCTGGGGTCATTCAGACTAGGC` , state whether its PBM binding z-score is greater than or equal to 1.
1 (yes)

Textbook exercise: given the entry `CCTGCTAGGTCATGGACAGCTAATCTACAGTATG` , state whether its PBM binding z-score is greater than or equal to 1.
1 (yes)

Textbook exercise: given the entry `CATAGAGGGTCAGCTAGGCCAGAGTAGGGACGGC` , state whether its PBM binding z-score is greater than or equal to 1.
1 (yes)

Textbook exercise: given the entry `TAGCCTAGGTCATTGGGCCAGTGTAGTACGCATC` , state whether its PBM binding z-score is greater than or equal to 1.
1 (yes)

Textbook exercise: given the entry `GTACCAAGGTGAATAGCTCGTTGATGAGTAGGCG` , state whether its PBM binding z-score is greater than or equal to 1.
0 (no)

Textbook exercise: given the entry `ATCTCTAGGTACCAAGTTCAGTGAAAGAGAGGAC` , state whether its PBM binding z-score is greater than or equal to 1.
1 (yes)

Textbook exercise: given the entry `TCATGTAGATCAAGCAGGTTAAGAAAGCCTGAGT` , state whether its PBM binding z-score is greater than or equal to 1.
1 (yes)

Textbook exercise: given the entry `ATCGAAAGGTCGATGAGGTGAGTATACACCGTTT` , state whether its PBM binding z-score is greater than or equal to 1.
1 (yes)

====

Hi there, I'd appreciate the recorded PBM binding z-score for every entry that follows.
Test system: PPARa:RXRa (NR concentration 270 nM, RXRa partner concentration 90 nM)
assay-procedure: PBM binding z-score (relative to random genomic background probes); higher = stronger binding; sequences stand for … in GC…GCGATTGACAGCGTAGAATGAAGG
Hey, just send me the number, nothing else.

Entry `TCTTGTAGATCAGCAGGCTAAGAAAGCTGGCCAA` has what PBM binding z-score?
0.0616

Entry `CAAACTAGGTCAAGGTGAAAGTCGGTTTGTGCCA` has what PBM binding z-score?
5.18

Entry `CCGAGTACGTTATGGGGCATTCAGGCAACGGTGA` has what PBM binding z-score?
-0.079

Entry `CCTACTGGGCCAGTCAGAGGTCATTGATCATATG` has what PBM binding z-score?
3.66

Entry `ATCTCTAGGTAAAACTTCAGTGAATCCCGAGGAT` has what PBM binding z-score?
0.249

Entry `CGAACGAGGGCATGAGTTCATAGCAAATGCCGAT` has what PBM binding z-score?
3.24

Entry `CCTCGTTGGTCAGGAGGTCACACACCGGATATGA` has what PBM binding z-score?
4.22

Entry `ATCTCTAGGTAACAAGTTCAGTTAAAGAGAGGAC` has what PBM binding z-score?
1.62

Entry `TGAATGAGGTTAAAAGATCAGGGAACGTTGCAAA` has what PBM binding z-score?
3.8

Entry `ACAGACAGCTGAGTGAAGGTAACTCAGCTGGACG` has what PBM binding z-score?
-0.464

Entry `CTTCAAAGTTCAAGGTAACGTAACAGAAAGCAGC` has what PBM binding z-score?
4.48

Entry `CGTCAAAGTCCAACTAAGGTAACGTAAAGCACGC` has what PBM binding z-score?
0.088

Entry `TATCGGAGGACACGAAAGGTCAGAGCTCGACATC` has what PBM binding z-score?
3.93

Entry `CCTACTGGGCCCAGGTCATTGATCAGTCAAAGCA` has what PBM binding z-score?
2.17

Entry `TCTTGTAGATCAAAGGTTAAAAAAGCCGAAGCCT` has what PBM binding z-score?
4.79

Entry `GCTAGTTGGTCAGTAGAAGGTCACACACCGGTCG` has what PBM binding z-score?
2.69

Entry `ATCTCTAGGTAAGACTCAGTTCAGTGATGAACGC` has what PBM binding z-score?
0.268

Entry `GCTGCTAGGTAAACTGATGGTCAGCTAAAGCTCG` has what PBM binding z-score?
-0.566

Entry `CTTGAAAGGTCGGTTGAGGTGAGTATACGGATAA` has what PBM binding z-score?
3.43

Entry `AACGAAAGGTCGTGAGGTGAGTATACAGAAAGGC` has what PBM binding z-score?
5.07

Entry `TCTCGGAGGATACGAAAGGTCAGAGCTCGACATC` has what PBM binding z-score?
3.68

Entry `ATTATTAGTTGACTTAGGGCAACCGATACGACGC` has what PBM binding z-score?
0.727

Entry `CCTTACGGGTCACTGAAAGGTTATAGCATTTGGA` has what PBM binding z-score?
5.59

Entry `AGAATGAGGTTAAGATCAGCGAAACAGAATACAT` has what PBM binding z-score?
3.72

Entry `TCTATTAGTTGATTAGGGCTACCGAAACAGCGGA` has what PBM binding z-score?
0.505

Entry `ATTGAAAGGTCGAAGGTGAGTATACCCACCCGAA` has what PBM binding z-score?
4.74

====

Test system: RARb:RXRa (NR concentration 270 nM, RXRa partner concentration 90 nM)
assay-procedure: PBM binding z-score (relative to random genomic background probes); higher = stronger binding; sequences stand for … in GC…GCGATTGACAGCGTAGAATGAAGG
Binning scheme for PBM binding z-score: low range (below 0.8), mid range (0.8 to below 3), high range (3 or more)

Dear colleague, I would appreciate it if you could identify the bin for `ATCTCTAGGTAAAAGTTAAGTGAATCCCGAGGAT` and reply at your convenience.
low range

Dear colleague, I would appreciate it if you could identify the bin for `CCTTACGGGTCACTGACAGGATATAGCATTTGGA` and reply at your convenience.
high range

Dear colleague, I would appreciate it if you could identify the bin for `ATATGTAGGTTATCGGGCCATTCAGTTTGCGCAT` and reply at your convenience.
mid range

Dear colleague, I would appreciate it if you could identify the bin for `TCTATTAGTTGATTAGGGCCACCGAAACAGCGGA` and reply at your convenience.
low range

Dear colleague, I would appreciate it if you could identify the bin for `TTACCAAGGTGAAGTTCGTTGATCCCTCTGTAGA` and reply at your convenience.
mid range

Dear colleague, I would appreciate it if you could identify the bin for `CCTACTGGGCCATTCGGAGGTCATTGATCATATG` and reply at your convenience.
mid range

Dear colleague, I would appreciate it if you could identify the bin for `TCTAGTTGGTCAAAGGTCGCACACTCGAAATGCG` and reply at your convenience.
high range

Dear colleague, I would appreciate it if you could identify the bin for `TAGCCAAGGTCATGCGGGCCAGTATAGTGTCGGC` and reply at your convenience.
high range

Dear colleague, I would appreciate it if you could identify the bin for `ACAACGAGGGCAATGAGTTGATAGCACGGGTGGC` and reply at your convenience.
mid range

Dear colleague, I would appreciate it if you could identify the bin for `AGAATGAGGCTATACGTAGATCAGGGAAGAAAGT` and reply at your convenience.
low range

Dear colleague, I would appreciate it if you could identify the bin for `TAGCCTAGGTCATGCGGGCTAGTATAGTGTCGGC` and reply at your convenience.
high range

Dear colleague, I would appreciate it if you could identify the bin for `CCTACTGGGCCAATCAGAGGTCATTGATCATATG` and reply at your convenience.
high range

Dear colleague, I would appreciate it if you could identify the bin for `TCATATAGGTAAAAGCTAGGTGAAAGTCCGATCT` and reply at your convenience.
low range

Dear colleague, I would appreciate it if you could identify the bin for `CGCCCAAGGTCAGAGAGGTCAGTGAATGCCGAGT` and reply at your convenience.
high range

Dear colleague, I would appreciate it if you could identify the bin for `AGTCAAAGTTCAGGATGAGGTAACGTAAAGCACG` and reply at your convenience.
high range

Dear colleague, I would appreciate it if you could identify the bin for `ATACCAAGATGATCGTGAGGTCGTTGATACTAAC` and reply at your convenience.
low range

Dear colleague, I would appreciate it if you could identify the bin for `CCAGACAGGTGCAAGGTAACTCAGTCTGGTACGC` and reply at your convenience.
low range

Dear colleague, I would appreciate it if you could identify the bin for `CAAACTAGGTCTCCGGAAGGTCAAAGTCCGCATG` and reply at your convenience.
high range

Dear colleague, I would appreciate it if you could identify the bin for `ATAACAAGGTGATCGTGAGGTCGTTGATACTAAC` and reply at your convenience.
mid range

Dear colleague, I would appreciate it if you could identify the bin for `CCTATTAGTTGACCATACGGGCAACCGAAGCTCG` and reply at your convenience.
low range

Dear colleague, I would appreciate it if you could identify the bin for `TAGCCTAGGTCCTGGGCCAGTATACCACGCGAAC` and reply at your convenience.
low range

Dear colleague, I would appreciate it if you could identify the bin for `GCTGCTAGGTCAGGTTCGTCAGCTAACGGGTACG` and reply at your convenience.
high range

Dear colleague, I would appreciate it if you could identify the bin for `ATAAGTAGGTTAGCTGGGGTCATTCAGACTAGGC` and reply at your convenience.
high range

Dear colleague, I would appreciate it if you could identify the bin for `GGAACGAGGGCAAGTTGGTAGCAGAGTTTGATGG` and reply at your convenience.
mid range

Dear colleague, I would appreciate it if you could identify the bin for `TCTAGTTGGTCTCGGAGGTCACACACGACGGGTA` and reply at your convenience.
high range
